Assay: SU-DIPG-VI glioma cell viability, MIPE4.0 library, CellTiter-Glo luminescence, qHTS (AID 1347066);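 further: cells exposed to compound for 48 hours before readout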
Conditions: CellTiter-Glo ATP luminescence
Results filed as inconclusive are left out. Active and inactive are the calls of the source. Cut-off not given; nearly all actives show AC50 up to about 30 µM.
Hi! Could you answer with just one of these? TRUE (active), FALSE (inactive)

Look up the recorded call for CCCCS(=N)(=O)CCC(N)C(=O)O (stereo not given) in this test.
FALSE

Ok, now `CC[C@H]1OC(=O)[C@H](C)[C@@H](O[C@H]2C[C@@](C)(OC)[C@@H](O)[C@H](C)O2)[C@H](C)[C@@H](O[C@@H]2O[C@H](C)C[C@H](N(C)C)[C@H]2O)[C@](C)(O)C[C@@H](C)CN(C)[C@H](C)[C@@H](O)[C@]1(C)O`
FALSE

Ok, now CN1C(=O)C(Cc2c[nH]c3ccccc23)NC1=S (stereo not given)
FALSE

Ok, now `C=C1/C(=C\C=C2/CCC[C@]3(C)[C@@H]([C@H](C)CCCC(C)(C)O)CC[C@@H]23)C[C@@H](O)C[C@@H]1O`
TRUE

Ok, now `OC[C@@H](O)[C@@H](O)[C@H](O)[C@@H](O)CO`
FALSE

Ok, now `Oc1ccc2ccccc2c1SSc1c(O)ccc2ccccc12`
TRUE

Ok, now `COc1ccc(Nc2nccc(NCCO)n2)cc1`
FALSE

Ok, now `Cc1cc(NC(=O)Nc2ccc(N(C)C)cc2)c2cc(F)cc(F)c2n1`
FALSE

Ok, now `COc1nc(C)nc(Cl)c1NC1=NCCN1`
FALSE

Ok, now CS(=O)c1ccc(-c2nc(-c3ccc(F)cc3)c(-c3ccncc3)[nH]2)cc1 (stereo not given)
FALSE
